# Assay system: Matrix metalloproteinase-9 (Homo sapiens) (UniProt P14780)
# Sequence (P14780 whole entry): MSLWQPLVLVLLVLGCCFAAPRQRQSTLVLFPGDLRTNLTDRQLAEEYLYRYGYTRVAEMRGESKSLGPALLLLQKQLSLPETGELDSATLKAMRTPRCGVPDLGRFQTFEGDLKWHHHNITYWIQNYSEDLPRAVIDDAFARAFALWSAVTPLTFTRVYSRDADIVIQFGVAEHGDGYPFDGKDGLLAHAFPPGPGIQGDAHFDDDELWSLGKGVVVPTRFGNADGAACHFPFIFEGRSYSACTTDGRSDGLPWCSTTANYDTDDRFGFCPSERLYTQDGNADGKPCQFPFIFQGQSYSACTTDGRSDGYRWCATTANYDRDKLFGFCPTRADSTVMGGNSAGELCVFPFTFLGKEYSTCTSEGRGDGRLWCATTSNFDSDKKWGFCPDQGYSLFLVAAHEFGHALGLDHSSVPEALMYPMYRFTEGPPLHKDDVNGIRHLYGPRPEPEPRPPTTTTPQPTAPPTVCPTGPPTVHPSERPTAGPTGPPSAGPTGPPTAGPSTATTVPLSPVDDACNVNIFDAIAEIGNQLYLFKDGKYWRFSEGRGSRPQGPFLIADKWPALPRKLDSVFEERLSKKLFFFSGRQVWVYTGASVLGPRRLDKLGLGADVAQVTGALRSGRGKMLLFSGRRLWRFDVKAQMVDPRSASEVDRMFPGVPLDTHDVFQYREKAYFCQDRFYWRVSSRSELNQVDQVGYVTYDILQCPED
# Protocol summary: Ratio Kcat to Ki for MMP9
Peptide text beside a SMILES is read from it. * marks the point of attachment. Doxorubicin(3'-N) = COc1cccc2c1C(=O)c1c(O)c3c(c(O)c1C2=O)C[C@@](O)(C(=O)CO)C[C@@H]3O[C@H]1C[C@H](N*)[C@H](O)[C@H](C)O1; X4 = O=C(c1cc(S(=O)(=O)O)cc(S(=O)(=O)O)c1)*; Bn = c1ccc(C*)cc1
Would you kindly list Ratio for each of these compounds?

Examples with answers:
| Compound | Ratio |
| --- | --- |
| COc1cccc2c1C(=O)c1c(O)c3c(c(O)c1C2=O)C[C@@](O)(C(=O)CO)C[C@@H]3O[C@H]1C[C@H](NC(=O)[C@H](CC(C)C)NC(=O)[C@H](C)NC(=O)[C@H](Cc2ccc(O)cc2)NC(=O)[C@H](CC(C)C)NC(=O)CNC(=O)[C@H](CC(C)C)NC(=O)[C@@H]2CCCN2C(C)=O)[C@H](O)[C@H](C)O1 (Ac-PLGLYAL-{Doxorubicin(3'-N)}) | > 120 |
| COc1cccc2c1C(=O)c1c(O)c3c(c(O)c1C2=O)C[C@@](O)(C(=O)CO)C[C@@H]3O[C@H]1C[C@H](NC(=O)[C@H](CC(C)C)NC(=O)[C@H](Cc2ccc(O)cc2)NC(=O)[C@@H](NC(=O)CNC(=O)[C@H](CO)NC(=O)[C@@H]2CCCN2C(=O)c2cc(S(=O)(=O)O)cc(S(=O)(=O)O)c2)[C@@H](C)OCc2ccccc2)[C@H](O)[C@H](C)O1 (X4-PSGT(Bn)YL-{Doxorubicin(3'-N)}) | > 120 |

Attention now shifts to the item below.
Supply Ratio value. Item: COc1cccc2c1C(=O)c1c(O)c3c(c(O)c1C2=O)C[C@@](O)(C(=O)CO)C[C@@H]3O[C@H]1C[C@H](NC(=O)[C@H](CC(C)C)NC(=O)[C@H](Cc2ccc(O)cc2)NC(=O)[C@H](CC(C)C)NC(=O)CNC(=O)[C@H](CC(C)C)NC(=O)[C@@H]2CCCN2C(C)=O)[C@H](O)[C@H](C)O1 (Ac-PLGLYL-{Doxorubicin(3'-N)})
390

* * *

Exercise: for every item that follows, state its recorded remaining at 6 h.
# Protocol summary: Compound remaining in mouse blood after 6 hrs
# Type: ADME, tissue-based
# Run conditions: read-out: Stability
Peptide text beside a SMILES is read from it. * marks the point of attachment. Doxorubicin(3'-N) = COc1cccc2c1C(=O)c1c(O)c3c(c(O)c1C2=O)C[C@@](O)(C(=O)CO)C[C@@H]3O[C@H]1C[C@H](N*)[C@H](O)[C@H](C)O1; X4 = O=C(c1cc(S(=O)(=O)O)cc(S(=O)(=O)O)c1)*; X5 = O=C(CS(=O)(=O)O)*; Bn = c1ccc(C*)cc1
Give bare numbers, in %.

| Compound | remaining at 6 h / % |
| --- | --- |
| COc1cccc2c1C(=O)c1c(O)c3c(c(O)c1C2=O)C[C@@](O)(C(=O)CO)C[C@@H]3O[C@H]1C[C@H](NC(=O)[C@H](CC(C)C)NC(=O)[C@H](Cc2ccc(O)cc2)NC(=O)[C@H](COCc2ccccc2)NC(=O)CNC(=O)[C@H](CC(C)C)NC(=O)[C@@H]2CCCN2C(=O)CS(=O)(=O)O)[C@H](O)[C@H](C)O1 (X5-PLGS(Bn)YL-{Doxorubicin(3'-N)}) | 90 |

// for each compound in input: emit remaining at 6 h
1. COc1cccc2c1C(=O)c1c(O)c3c(c(O)c1C2=O)C[C@@](O)(C(=O)CO)C[C@@H]3O[C@H]1C[C@H](NC(=O)[C@H](CC(C)C)NC(=O)[C@H](Cc2ccc(O)cc2)NC(=O)[C@@H](NC(=O)CNC(=O)[C@H](CO)NC(=O)[C@@H]2CCCN2C(=O)c2cc(S(=O)(=O)O)cc(S(=O)(=O)O)c2)[C@@H](C)OCc2ccccc2)[C@H](O)[C@H](C)O1 (X4-PSGT(Bn)YL-{Doxorubicin(3'-N)})
2. COc1cccc2c1C(=O)c1c(O)c3c(c(O)c1C2=O)C[C@@](O)(C(=O)CO)C[C@@H]3O[C@H]1C[C@H](NC(=O)[C@H](CC(C)C)NC(=O)[C@H](Cc2ccc(O)cc2)NC(=O)[C@H](CSCc2ccccc2)NC(=O)CNC(=O)[C@H](CC(C)C)NC(=O)[C@@H]2CCCN2C(=O)[C@H](CCC(=O)O)NC(C)=O)[C@H](O)[C@H](C)O1 (Ac-EPLGC(Bn)YL-{Doxorubicin(3'-N)})

[100, 90]

* * *

# Assay system: Matrix metalloproteinase-14 (Homo sapiens) (UniProt P50281)
# Protocol summary: Ratio Kcat to […] for MMP14
Numbered stars: 1 amine (or outer) side, 2 acyl side, 3 side chain; on linkers, the order of the positions; unused ones are H or OH. Square brackets hold non-standard residues; d marks the D form. Peptide text beside a SMILES is read from it. * marks the point of attachment. Doxorubicin(3'-N) = COc1cccc2c1C(=O)c1c(O)c3c(c(O)c1C2=O)C[C@@](O)(C(=O)CO)C[C@@H]3O[C@H]1C[C@H](N*)[C@H](O)[C@H](C)O1; X4 = O=C(c1cc(S(=O)(=O)O)cc(S(=O)(=O)O)c1)*; X6 = CN1CCN(CCCC(N[*:1])C(=O)[*:2])CC1; hTyr = N[C@@H](CCc1ccc(O)cc1)C(=O)O; hPhe = N[C@@H](CCc1ccccc1)C(=O)O; X5 = O=C(CS(=O)(=O)O)*; Bn = c1ccc(C*)cc1
# if measured Ratio < 70: Met  # else: Not met

| Compound | Label |
| --- | --- |
| COc1cccc2c1C(=O)c1c(O)c3c(c(O)c1C2=O)C[C@@](O)(C(=O)CO)C[C@@H]3O[C@H]1C[C@H](NC(=O)[C@H](CC(C)C)NC(=O)[C@H](CCc2ccc(O)cc2)NC(=O)[C@H](CCc2ccccc2)NC(=O)CNC(=O)[C@H](CC(C)C)NC(=O)[C@@H]2CCCN2C(C)=O)[C@H](O)[C@H](C)O1 (Ac-PLG[hPhe][hTyr]L-{Doxorubicin(3'-N)}) | Not met |
| COc1cccc2c1C(=O)c1c(O)c3c(c(O)c1C2=O)C[C@@](O)(C(=O)CO)C[C@@H]3O[C@H]1C[C@H](NC(=O)[C@H](CC(C)C)NC(=O)C(CCCN2CCN(C)CC2)NC(=O)[C@H](CCc2ccccc2)NC(=O)CNC(=O)[C@H](CC(C)C)NC(=O)[C@@H]2CCCN2C(C)=O)[C@H](O)[C@H](C)O1 (stereo partly drawn) (Ac-PLG[hPhe][X6]L-{Doxorubicin(3'-N)}) | Not met |
| COc1cccc2c1C(=O)c1c(O)c3c(c(O)c1C2=O)C[C@@](O)(C(=O)CO)C[C@@H]3O[C@H]1C[C@H](NC(=O)[C@H](CC(C)C)NC(=O)[C@H](Cc2ccc(O)cc2)NC(=O)[C@@H](NC(=O)CNC(=O)[C@H](CO)NC(=O)[C@@H]2CCCN2C(=O)c2cc(S(=O)(=O)O)cc(S(=O)(=O)O)c2)[C@@H](C)OCc2ccccc2)[C@H](O)[C@H](C)O1 (X4-PSGT(Bn)YL-{Doxorubicin(3'-N)}) | Not met |
| COc1cccc2c1C(=O)c1c(O)c3c(c(O)c1C2=O)C[C@@](O)(C(=O)CO)C[C@@H]3O[C@H]1C[C@H](NC(=O)[C@H](CC(C)C)NC(=O)[C@H](C)NC(=O)[C@H](CCc2ccccc2)NC(=O)CNC(=O)[C@H](CC(C)C)NC(=O)[C@@H]2CCCN2C(C)=O)[C@H](O)[C@H](C)O1 (Ac-PLG[hPhe]AL-{Doxorubicin(3'-N)}) | Met |
| COc1cccc2c1C(=O)c1c(O)c3c(c(O)c1C2=O)C[C@@](O)(C(=O)CO)C[C@@H]3O[C@H]1C[C@H](NC(=O)[C@H](CC(C)C)NC(=O)[C@H](Cc2ccc(O)cc2)NC(=O)[C@H](CSCc2ccccc2)NC(=O)CNC(=O)[C@H](CC(C)C)NC(=O)[C@@H]2CCCN2C(=O)[C@H](CCC(=O)O)NC(C)=O)[C@H](O)[C@H](C)O1 (Ac-EPLGC(Bn)YL-{Doxorubicin(3'-N)}) | Not met |
| COc1cccc2c1C(=O)c1c(O)c3c(c(O)c1C2=O)C[C@@](O)(C(=O)CO)C[C@@H]3O[C@H]1C[C@H](NC(=O)[C@H](CC(C)C)NC(=O)[C@H](CC(C)C)NC(=O)CNC(=O)[C@H](CC(C)C)NC(=O)[C@@H]2CCCN2C(C)=O)[C@H](O)[C@H](C)O1 (Ac-PLGLL-{Doxorubicin(3'-N)}) | Met |
| COc1cccc2c1C(=O)c1c(O)c3c(c(O)c1C2=O)C[C@@](O)(C(=O)CO)C[C@@H]3O[C@H]1C[C@H](NC(=O)[C@H](CC(C)C)NC(=O)[C@H](Cc2ccc(O)cc2)NC(=O)[C@H](COCc2ccccc2)NC(=O)CNC(=O)[C@H](CC(C)C)NC(=O)[C@@H]2CCCN2C(=O)CS(=O)(=O)O)[C@H](O)[C@H](C)O1 (X5-PLGS(Bn)YL-{Doxorubicin(3'-N)}) | Not met |
| COc1cccc2c1C(=O)c1c(O)c3c(c(O)c1C2=O)C[C@@](O)(C(=O)CO)C[C@@H]3O[C@H]1C[C@H](NC(=O)[C@H](CC(C)C)NC(=O)[C@H](Cc2ccc(O)cc2)NC(=O)[C@H](CC(C)C)NC(=O)CNC(=O)[C@H](CC(C)C)NC(C)=O)[C@H](O)[C@H](C)O1 (Ac-LGLYL-{Doxorubicin(3'-N)}) | Met |
| COc1cccc2c1C(=O)c1c(O)c3c(c(O)c1C2=O)C[C@@](O)(C(=O)CO)C[C@@H]3O[C@H]1C[C@H](NC(=O)[C@H](CC(C)C)NC(=O)[C@H](Cc2ccc(O)cc2)NC(=O)[C@H](CC(C)C)NC(=O)CNC(=O)[C@H](CC(C)C)NC(=O)[C@@H]2CCCN2C(C)=O)[C@H](O)[C@H](C)O1 (Ac-PLGLYL-{Doxorubicin(3'-N)}) | Not met |

Shifting focus to the compound that follows.
Consider COc1cccc2c1C(=O)c1c(O)c3c(c(O)c1C2=O)C[C@@](O)(C(=O)CO)C[C@@H]3O[C@H]1C[C@H](NC(=O)[C@H](CC(C)C)NC(=O)[C@H](CC(C)C)NC(=O)CNC(=O)[C@H](CC(C)C)NC(C)=O)[C@H](O)[C@H](C)O1 (Ac-LGLL-{Doxorubicin(3'-N)}) . Does its Ratio lie strictly below 70?
Met
